Values were extracted from patent US12162858B2.

target: CSF1R (Homo sapiens); test: Cellular CSF1R inhibition ELISA (p-CSF1R, M-CSF-induced) using THP-1 cells; assay type: cell-based; design: THP-1 cells act as a model for human monocytes; endogenous in cells; host or cells: THP-1
Sequence (P07333 20-972): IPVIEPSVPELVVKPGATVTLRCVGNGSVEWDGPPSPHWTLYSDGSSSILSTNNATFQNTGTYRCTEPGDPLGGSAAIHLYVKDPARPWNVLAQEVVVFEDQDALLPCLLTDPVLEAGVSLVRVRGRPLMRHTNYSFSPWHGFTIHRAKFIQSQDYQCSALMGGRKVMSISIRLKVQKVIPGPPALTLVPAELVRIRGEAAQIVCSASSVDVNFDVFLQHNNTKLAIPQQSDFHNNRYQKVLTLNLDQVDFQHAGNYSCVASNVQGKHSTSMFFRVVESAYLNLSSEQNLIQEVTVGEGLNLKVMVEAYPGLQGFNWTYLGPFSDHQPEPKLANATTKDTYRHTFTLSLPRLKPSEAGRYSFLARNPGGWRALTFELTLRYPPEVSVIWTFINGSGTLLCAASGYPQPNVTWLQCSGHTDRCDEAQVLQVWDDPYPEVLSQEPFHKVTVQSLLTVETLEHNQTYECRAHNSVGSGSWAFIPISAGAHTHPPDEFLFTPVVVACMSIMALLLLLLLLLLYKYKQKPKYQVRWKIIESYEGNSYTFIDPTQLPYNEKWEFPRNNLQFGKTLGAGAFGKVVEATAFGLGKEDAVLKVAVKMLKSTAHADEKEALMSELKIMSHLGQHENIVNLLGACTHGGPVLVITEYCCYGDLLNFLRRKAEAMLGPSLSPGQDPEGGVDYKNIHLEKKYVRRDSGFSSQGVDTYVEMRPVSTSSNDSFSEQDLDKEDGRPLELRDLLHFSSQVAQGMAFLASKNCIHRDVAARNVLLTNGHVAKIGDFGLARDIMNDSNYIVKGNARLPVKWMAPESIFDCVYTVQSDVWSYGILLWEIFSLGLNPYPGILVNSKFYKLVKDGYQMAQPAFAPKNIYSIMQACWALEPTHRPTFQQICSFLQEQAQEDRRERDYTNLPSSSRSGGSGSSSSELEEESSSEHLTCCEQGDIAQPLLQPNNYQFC
valueKind: IC50

Prompt: Tell me the measured IC50 of COc1cc2nccc(Oc3ccc(NC(=O)c4nn(C5CCNC5)cc4OCC(F)(F)F)cc3F)c2cc1OC (stereo not drawn) , please.
Completion: ≥ 1000 nM

---

target: CSF1R (Homo sapiens); assay: Cellular CSF1R inhibition ELISA (p-CSF1R, M-CSF-induced) using THP-1 cells
valueKind: IC50

compound: CNCCOc1cn(C2CC2)nc1C(=O)Nc1ccc(Oc2ccnc3cc(OC)c(OC)cc23)cn1
IC50: ≥ 1000 nM
--
compound: COc1cc2nccc(Oc3ccc(NC(=O)c4nn(CCNC5CC5)cc4OCC(F)(F)F)nc3)c2cc1OC
IC50: < 500 nM
--
compound: COc1cc2nccc(Oc3ccc(NC(=O)c4nc(CCC(F)(F)F)oc4CCC4CCC4)nc3)c2cc1OC
IC50: ≥ 1000 nM
--
compound: CCCn1cc(OCC(F)(F)F)c(C(=O)Nc2ccc(Oc3ccnc4cc(OC)c(OC)cc34)cc2C)n1
IC50: ≥ 1000 nM
--
compound: COc1cc2nccc(Oc3ccc(NC(=O)c4nn(CCOC5CCC5)cc4OCC(F)(F)F)nc3)c2cc1OC
IC50: < 500 nM
--
compound: COc1cc2nccc(Oc3ccc(NC(=O)c4nn(CCC5CCCC5)cc4OCC(F)(F)F)nc3)c2cc1OC
IC50: < 500 nM
--
compound: COc1cc2nccc(Oc3ccc(NC(=O)c4nn(CCO)cc4OCC(F)(F)F)cn3)c2cc1OC
IC50: ≥ 1000 nM
--
compound: COc1cc2nccc(Oc3ccc(NC(=O)c4nn(C5CCN(C)C5)cc4OCC(F)(F)F)cc3F)c2cc1OC (stereo not shown)
IC50: ≥ 1000 nM
--
compound: COc1cc2nccc(Oc3ccc(NC(=O)c4nn(C)cc4OCC(F)(F)F)cc3F)c2cc1OC
IC50: 500 to 1000 nM

Then there is this compound:
Prompt: Would you mind telling me what IC50 value was observed for `COCCn1cc(OCC(F)(F)F)c(C(=O)Nc2ccc(Oc3ccnc4cc(OC)c(OC)cc34)nn2)n1` ?
Completion: ≥ 1000 nM

---

Molecular target: CSF1R (Homo sapiens)
Assay: KINOMEscan competition binding assay for CSF1R
Set-up: DNA tag for qPCR (not a peptide); host or cells: E. coli/T7 phage or HEK-293
Conditions: @ 0.1 uM; read-out: CSF1R kinase binding activity, Percent (%) inhibition
Experimental: KINOMEscan™ is based on a competition binding assay that quantitatively measures the ability of a compound to compete with an immobilized, active-site directed ligand. […] The ability of the test compound to compete with the immobilized ligand is measured via quantitative PCR of the DNA tag. E. coli were grown to log-phase and infected with T7 phage and incubated with shaking at 32° C. until lysis. […] Kds were determined using an 11-point 3-fold compound dilution series with three DMSO control points. […]
valueKind: inhibition at 0.1 µM (%)

Answered cases to consult:
compound: COc1cc2nccc(Oc3ccc(NC(=O)c4nn(CCOC5CC5)cc4OCC(F)(F)F)cc3F)c2cc1OC
inhibition at 0.1 µM / %: 93
--
compound: COCCn1cc(OCC(F)(F)F)c(C(=O)Nc2ccc(Oc3ccnc4cc(OC)c(OC)cc34)cc2F)n1
inhibition at 0.1 µM / %: 66
--
compound: COc1cc2nccc(Oc3ccc(NC(=O)c4nn(CCNC5CC5)cc4OCC(F)(F)F)nc3)c2cc1OC
inhibition at 0.1 µM / %: 95
--
compound: CCCn1cc(OC(C)C)c(C(=O)Nc2ccc(Oc3ccnc4cc(OC)c(OC(F)(F)F)cc34)c(F)c2)n1
inhibition at 0.1 µM / %: 6
--
compound: COc1cc2nccc(Oc3ccc(NC(=O)c4nn(C5CC5)c(C(C)=O)c4OCC(F)(F)F)nc3)c2cc1OC
inhibition at 0.1 µM / %: 71

I = COc1cc2nccc(Oc3ccc(NC(=O)c4nn(CCC#N)cc4OCC(F)(F)F)nc3)c2cc1OC
II = CNCCOc1cn(C2CC2)nc1C(=O)Nc1ccc(Oc2ccnc3cc(OC)c(OC)cc23)cn1
Prompt: Which record shows the lower inhibition at 0.1 µM: the first, I , or the second, II ? Select an item and report its label.
Completion: II
(II: 23%, I: 97%)

A = COc1cc2nccc(Oc3ccc(NC(=O)c4nn(C(C)C)c(C)c4OCC(F)(F)F)nc3)c2cc1OC
B = COc1cc2nccc(Oc3ccc(NC(=O)c4nn(C5CCNC5)cc4OCC(F)(F)F)cc3F)c2cc1OC (stereo not drawn)
C = COc1cc2nccc(Oc3ccc(NC(=O)c4nn(CC(C)O)cc4OCC4CN(C)C4)nc3)c2cc1OC (stereo not drawn)
D = CNCCn1cc(OCC(F)(F)F)c(C(=O)Nc2ccc(Oc3ccnc4cc(OC)c(OC)cc34)nc2)n1
Prompt: Form: Sort by [inhibition at 0.1 µM] Order [ ascending ] Give your ranking as a list of the labels in the requested order.
Completion: D, B, C, A
(D: 6%, B: 11%, C: 25%, A: 89%)

I = COc1cc2nccc(Oc3ccc(NC(=O)c4nn(C5CCN(C)C5)cc4OCC(F)(F)F)nc3)c2cc1OC (stereo not drawn)
II = COc1cc2nccc(Oc3ccc(NC(=O)c4nn(CC5COC5)cc4OCC(F)(F)F)c(F)c3)c2cc1OC
Prompt: Compare inhibition at 0.1 µM: is it lower for I or for II ? # respond with the chosen item's label
Completion: II

P = COc1cc2nccc(Oc3ccc(NC(=O)c4nn(CC(C)O)cc4OC(C)C)nc3)c2cc1OC (stereo not drawn)
Q = CCCn1cc(OCC2CCC2)c(C(=O)Nc2ccc(Oc3ccnc4cc(OC)c(OC(F)(F)F)cc34)cn2)n1
Prompt: Lower inhibition at 0.1 µM: P or Q ? Mark your selection by writing its label.
Completion: Q
